Study Target: UniProtKB P04629
Assay: TrkA functional activity, DiscoverX PathHunter assay
Stated Conditions: U2OS cells expressing human TrkA-PK, Shc1-EA and p75NTR; compound 1 h, then NGF at ~80% of maximal response for 3 h; luminescence
With a cut-off of 7 nM, any IC50 strictly below it is called True; any IC50 meeting it or above is called False.

Answer whether the compound "Cn1ccc(-c2cc(C(=O)Nc3c4ccc([C@H](N)C(F)(F)F)cc4nn3-c3ccccc3)ccc2C(F)(F)F)n1" has IC50 strictly less than 7 nM
True

In plain terms, does "Cn1ccc(-c2cc(C(=O)Nc3c4ccc(C(N)=O)cc4nn3-c3ccccc3)ccc2C(F)(F)F)n1" come in under 7 nM for IC50?
True

Bench note: check whether "Cn1ccc(-c2cc(C(=O)Nc3c4cccnc4nn3-c3ccccc3)c(F)cc2C(F)(F)F)n1" shows IC50 below 7 nM
True

Please let me know if "NC(=O)c1cccc2c(NC(=O)c3cc(-c4ncccn4)c(C(F)(F)F)cc3F)n(-c3ccccc3)nc12" shows IC50 below 7 nM.
False

Regarding "O=C(Nc1c2ncccc2nn1-c1cccc(CO)c1)c1cc(-c2ncccn2)c(C(F)(F)F)cc1F" , kindly confirm whether its IC50 is beneath 7 nM.
False

Take the compound "Cn1ccc(-c2cc(C(=O)Nc3c4cc(C(N)=O)ccc4nn3-c3ccccc3)ccc2C(F)(F)F)n1" and say whether its IC50 is less than 7 nM.
False

----------
Study Target: human TrkA receptor (Homo sapiens (Human), UniProt P04629)
Sequence (P04629 33-796): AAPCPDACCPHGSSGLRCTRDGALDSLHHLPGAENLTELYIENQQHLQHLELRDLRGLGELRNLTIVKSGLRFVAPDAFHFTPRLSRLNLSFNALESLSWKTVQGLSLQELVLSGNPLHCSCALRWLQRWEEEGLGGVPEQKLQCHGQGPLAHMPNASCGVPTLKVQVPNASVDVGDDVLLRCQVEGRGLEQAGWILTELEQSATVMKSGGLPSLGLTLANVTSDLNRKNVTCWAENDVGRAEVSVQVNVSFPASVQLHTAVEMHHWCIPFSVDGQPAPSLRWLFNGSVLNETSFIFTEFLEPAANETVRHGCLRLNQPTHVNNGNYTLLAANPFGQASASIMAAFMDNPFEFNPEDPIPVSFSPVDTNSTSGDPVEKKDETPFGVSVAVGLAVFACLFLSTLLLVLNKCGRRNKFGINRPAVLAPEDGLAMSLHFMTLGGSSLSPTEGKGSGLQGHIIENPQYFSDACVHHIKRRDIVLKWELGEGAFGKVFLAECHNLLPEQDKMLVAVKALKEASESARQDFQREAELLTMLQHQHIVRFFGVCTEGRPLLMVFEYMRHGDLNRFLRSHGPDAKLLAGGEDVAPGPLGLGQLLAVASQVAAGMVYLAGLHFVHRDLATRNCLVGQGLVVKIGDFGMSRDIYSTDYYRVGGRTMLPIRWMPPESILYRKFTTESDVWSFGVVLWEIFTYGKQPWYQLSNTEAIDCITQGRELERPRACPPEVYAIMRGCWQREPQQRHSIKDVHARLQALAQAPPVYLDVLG
Assay: TrkA functional activity, DiscoverX PathHunter assay
Stated Conditions: U2OS cells expressing human TrkA-PK, Shc1-EA and p75NTR; compound 1 h, then NGF at ~80% of maximal response for 3 h; luminescence
Observation Type: IC50 (nM)
Write down the numeric answer in nM and omit the unit.

human TrkA receptor (Homo sapiens (Human), UniProt P04629) / IC50 / "O=C(Nc1c2ccc(CO)cc2nn1-c1ccccc1)c1cc(-c2ncccn2)c(C(F)(F)F)cc1F" : value?
3.8

Record lookup: for human TrkA receptor (Homo sapiens (Human), UniProt P04629), what IC50 belongs to "NC(=O)c1ccc2c(NC(=O)c3cc(-c4cc[nH]n4)c(C(F)(F)F)cc3F)n(-c3ccccc3)nc2c1" ?
3.6

What reported IC50 corresponds to "O=C(Nc1c2cc(CO)ccc2nn1-c1ccccc1)c1cc(-c2ncccn2)c(C(F)(F)F)cc1F" on human TrkA receptor (Homo sapiens (Human), UniProt P04629)?
2.6

Tell me reported IC50 for "NC(=O)Cc1ccc2c(NC(=O)c3cc(-c4ncccn4)c(C(F)(F)F)cc3F)n(-c3ccccc3)nc2c1" , tested with human TrkA receptor (Homo sapiens (Human), UniProt P04629).
4.4

Request: IC50, test system human TrkA receptor (Homo sapiens (Human), UniProt P04629), entry "O=C(Nc1c2cc(CCO)ccc2nn1-c1ccccc1)c1cc(-c2ncccn2)c(C(F)(F)F)cc1F"
3.1

Lookup: IC50 / human TrkA receptor (Homo sapiens (Human), UniProt P04629) / "Cn1ccc(-c2cc(C(=O)Nc3c4ncccc4nn3-c3ccccc3)c(F)cc2C(F)(F)F)n1"
0.66

Which IC50 is reported with human TrkA receptor (Homo sapiens (Human), UniProt P04629) for this entry: "O=C(Nc1c2[nH]c(=O)ccc2nn1-c1ccccc1)c1cc(-c2ncccn2)c(C(F)(F)F)cc1F" ?
6

Lab request: please report IC50 under test system human TrkA receptor (Homo sapiens (Human), UniProt P04629) for O=C(Nc1c2ncc(C(O)CO)cc2nn1-c1ccccc1)c1cc(-c2ncccn2)c(C(F)(F)F)cc1Cl (single isomer, unassigned; isomer b) [Compound 65]
29

Missing value: IC50, human TrkA receptor (Homo sapiens (Human), UniProt P04629), entry "O=C(NCCO)c1ccc2c(NC(=O)c3cc(-c4ncccn4)c(C(F)(F)F)cc3Cl)n(-c3ccccc3)nc2c1" . Fill in?
14

For human TrkA receptor (Homo sapiens (Human), UniProt P04629), provide IC50 of CC(O)c1cnc2c(NC(=O)c3cc(-c4ccn(C)n4)c(C(F)(F)F)cc3F)n(-c3ccccc3)nc2c1 (single isomer, unassigned; isomer b) [Compound 34] please.
0.48

Recall the recorded IC50 for "Cn1ccc(-c2cc(C(=O)Nc3c4cc(C5(O)CC5)ccc4nn3-c3ccccc3)ccc2C(F)(F)F)n1" with human TrkA receptor (Homo sapiens (Human), UniProt P04629) and state it.
6.4

Quick check: IC50 on human TrkA receptor (Homo sapiens (Human), UniProt P04629), item "Cn1ccc(-c2cc(C(=O)Nc3c4cc(CO)ncc4nn3-c3ccccc3)c(F)cc2C(F)(F)F)n1" ?
1.9

Form: Entry = "CNC(=O)Cc1ccc2c(NC(=O)c3cc(-c4ncccn4)c(C(F)(F)F)cc3F)n(-c3ccccc3)nc2c1" | System = human TrkA receptor (Homo sapiens (Human), UniProt P04629) | IC50 = ____
8.9

API: value(readout= IC50, system= human TrkA receptor (Homo sapiens (Human), UniProt P04629), query= "Cn1ccc(-c2cc(C(=O)Nc3c4nc(C(C)(C)O)ncc4nn3-c3ccccc3)c(F)cc2C(F)(F)F)n1" )
33
